All figures here come from PubChem BioAssay AID1255.

Biological target: Neuropeptide Y receptor type 2 (Homo sapiens) (UniProt P49146)
Sequence (P49146 whole entry, looked up): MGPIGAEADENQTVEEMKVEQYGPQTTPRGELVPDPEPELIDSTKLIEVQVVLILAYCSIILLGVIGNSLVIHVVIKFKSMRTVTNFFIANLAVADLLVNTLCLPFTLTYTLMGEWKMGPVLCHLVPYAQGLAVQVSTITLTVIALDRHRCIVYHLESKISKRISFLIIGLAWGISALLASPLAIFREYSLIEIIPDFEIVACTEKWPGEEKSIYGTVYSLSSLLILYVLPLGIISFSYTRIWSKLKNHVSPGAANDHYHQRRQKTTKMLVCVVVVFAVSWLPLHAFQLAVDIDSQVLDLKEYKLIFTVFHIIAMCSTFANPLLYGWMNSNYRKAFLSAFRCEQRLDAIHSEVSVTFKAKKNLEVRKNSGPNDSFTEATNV
Experiment: NPY-Y2 receptor antagonists, selectivity check, confirmation, counter-screen for NPY-Y1 antagonist project, HEK293-CNG cells, membrane potential fluorescence, triplicate (AID 1255);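 also: 0% = DMSO with agonist challenge and 100% = reference antagonist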
Details: antagonism, at 3.6 µM, cells given NPY, then isoproterenol
About 330 (28%) of roughly 1,200 compounds were called active. Rule as the data show it: active = inhibition above about 17%; inactive = the rest. Only a sample is shown.
Answer with one of the outcomes active, inactive

Solved cases (2 shown):
O=S(=O)(O)c1nc2ccccc2n1Cc1ccc(Cl)cc1 : inactive
Cc1cc(C(C)(C)C)oc1C(=O)N(CC(=O)NC1CCCC1)Cc1ccc(Cl)cc1 : active

Could you check what this test reported for COc1ccccc1N1CCN(C(=O)CN(Cc2ccc(Cl)cc2)S(C)(=O)=O)CC1 ?
inactive

Could you check what this test reported for Cc1ccc(C(=O)N/C(=C/c2ccc(-c3cccc([N+](=O)[O-])c3)o2)C(=O)NCCCN(C)C)cc1 ?
inactive

Could you check what this test reported for O=C(NCCCN1CCOCC1)c1cnn2c(-c3ccccc3)cc(-c3ccccc3)nc12 ?
active

Could you check what this test reported for Cc1ccc2nc(-c3ccccn3)cc(C(=O)Nc3ccc4c(c3)OCO4)c2c1 ?
active

Could you check what this test reported for Cc1ccc(SCCC(=O)OCC(=O)Nc2ncc(Cl)cc2Cl)cc1 ?
inactive

Could you check what this test reported for CCCCCCC(=O)Nc1nc(C)c(-c2csc(Nc3cccc(OC)c3)n2)s1 ?
inactive

Could you check what this test reported for COC(=O)C1=C(Nc2ccc(C)cc2)C=C(C)C(C(=O)OC)C1c1ccc(F)cc1 (configuration not stated) ?
inactive

Could you check what this test reported for CC(=O)OC(C)C[N+](C)(C)C (configuration not stated) ?
inactive

---

Measured inhibition by item
Biological target: Neuropeptide Y receptor type 2 (Homo sapiens) (UniProt P49146)
Assay: NPY-Y2 receptor antagonists, selectivity check, confirmation, counter-screen for NPY-Y1 antagonist project, HEK293-CNG cells, membrane potential fluorescence, triplicate (AID 1255);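 also: 0% = DMSO with agonist challenge and 100% = reference antagonist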
Conditions: antagonism, at 3.6 µM, hits give high values, cells given NPY, then isoproterenol
Hit rate of the full screen: of about 1,200 compounds, about 330 (28%) were called active. Only a sample is shown.

Would you please look over these solved cases?
CCCCc1c(O)nc2n(c1=O)CCS2 : 2.74% (inactive)
Cc1ccc(C(=O)C[n+]2cc(-c3ccccc3)n3c2CCCCC3)cc1 : 14.5% (inactive)

Give its inhibition value. Item: CCS(=O)(=O)n1nc(-c2ccccc2)nc1SCc1ccccc1
13.4% (inactive)

Give its inhibition value. Item: CCCOc1ccc2c3c(c(=O)oc2c1OCCC)CCC3
15.6% (inactive)

Give its inhibition value. Item: c1ccc(-c2ccccc2OCCN2CCCCC2)cc1
6.63% (inactive)

---

Molecular target: Neuropeptide Y receptor type 2 (Homo sapiens) (UniProt P49146)
Assay: NPY-Y2 receptor antagonists, selectivity check, confirmation, counter-screen for NPY-Y1 antagonist project, HEK293-CNG cells, membrane potential fluorescence, triplicate (AID 1255);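 also: 0% = DMSO with agonist challenge and 100% = reference antagonist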
Settings: antagonism, at 3.6 µM, hits give high values, cells given NPY, then isoproterenol
About 330 (28%) of roughly 1,200 compounds were called active. Not all results are given here.
READOUT: inhibition (%)
Dear colleague, please return just the value in %, with no unit written.

Would you please look over these solved cases?
Clc1ccccc1-c1cc(COc2ccc3ccccc3c2)no1 : 18.4
Cc1ccc(Cn2c(NC(=O)c3ccco3)nc3ccccc32)cc1 : 24.2
CC(C)Cn1cnc2c1c(=O)n(CC(O)c1ccccc1)c(=O)n2CC(C)C (configuration not stated) : -0.53
CC(Nc1nc(N2CCN(CCO)CC2)nc2ccccc12)c1ccccc1 (configuration not stated) : 10.1
Fc1ccc(-c2nnc(CSc3nnc(-c4ccc5c(c4)OCO5)o3)o2)cc1 : 9.04

Give its inhibition value. Item: O=C(/C=C/c1ccco1)Nc1cccc(-c2nc3ccccc3[nH]2)c1
7.24

Give its inhibition value. Item: CCCC(=O)Nc1nc2ccc(NC(=O)c3c(F)c(F)c(OC)c(F)c3F)cc2s1
11.5

---

Target: Neuropeptide Y receptor type 2 (Homo sapiens)
Experiment: NPY-Y2 receptor antagonists, selectivity check, confirmation, counter-screen for NPY-Y1 antagonist project, HEK293-CNG cells, membrane potential fluorescence, triplicate (AID 1255);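 also: 0% = DMSO with agonist challenge and 100% = reference antagonist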
Settings: antagonism, at 3.6 µM, cells given NPY, then isoproterenol
About 330 (28%) of roughly 1,200 compounds were called active. Cut-off read from the data, not from the text of the source: active = inhibition above about 17%; inactive = the rest. The list is a sample of the results.
Answer with one of the outcomes YES for active, NO for inactive

OCC1(CCc2ccccc2)CCN(Cc2ccc3nsnc3c2)CC1 : NO
CCCOC(=O)c1[nH]c2c(c1C)C(=O)CC(c1cccs1)C2 (stereo not drawn) : NO
COc1ccc(C(c2nnnn2C2CCCCC2)N2CCN(c3ccccc3F)CC2)cc1 (stereo not drawn) : NO
COC(=O)c1ccc(COC(=O)c2c(C)nn(Cc3ccccc3Cl)c2Cl)o1 : NO
COc1ccc(C(=O)CSc2nnc(COc3ccccc3)n2Cc2ccco2)cc1 : NO

Could you check what this test reported for CC(=O)N1CC(C)c2scc(C)[n+]2-c2ccccc21 (stereo not drawn) ?
NO

Could you check what this test reported for CCc1ccc(CNC(=O)C2CCCN(c3nc4ccccc4o3)C2)cc1 (stereo not drawn) ?
NO

Could you check what this test reported for O=C(CSc1nnnn1C1CCCC1)Nc1ccc2c(c1)OCCO2 ?
NO

---

Target: Neuropeptide Y receptor type 2 (Homo sapiens)
Assay: NPY-Y2 receptor antagonists, selectivity check, confirmation, counter-screen for NPY-Y1 antagonist project, HEK293-CNG cells, membrane potential fluorescence, triplicate (AID 1255);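 also: 0% = DMSO with agonist challenge and 100% = reference antagonist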
Conditions: antagonism, at 3.6 µM, cells given NPY, then isoproterenol
About 330 (28%) of roughly 1,200 compounds were called active. Rule as the data show it: active = inhibition above about 17%; inactive = the rest. Only a sample is shown.
Answer with one of the outcomes yes (1) for active, no (0) for inactive

CC1CN(CCCOc2ccccc2-c2ccccc2)CC(C)O1 (stereo not given) : no (0)
Cc1cc(C)c2[nH]c(=O)c(CN(Cc3ccccc3)C(=S)NCCCN(C)C)cc2c1 : yes (1)
Cc1ccc(/C=N/NC(=O)COc2ccccc2-c2ccccc2)cc1 : yes (1)
COc1ccc(-c2[nH]nc(-c3ccccc3)c2-c2nc3ccccc3[nH]2)cc1 : no (0)
Cc1ccc(N2C(=O)C3N=NN(CC(=O)N4N=C(c5cccc6ccccc56)CC4c4ccccc4)C3C2=O)cc1 (stereo not given) : no (0)
Cc1ccc(-c2cc(C(=O)N3CCc4ccccc4C3)no2)cc1 : no (0)
COc1ccccc1C1C2=C(COC2=O)Nc2cc3c(cc21)OCO3 (stereo not given) : no (0)
CC(Oc1ccc2ccccc2c1)C(=O)NNC(=S)NC(=O)c1ccco1 (stereo not given) : no (0)

Could you check what this test reported for COc1ccc(CCN(C(=O)COc2ccccc2)c2nc(-c3ccccc3)cs2)cc1OC ?
yes (1)

Could you check what this test reported for O=C(Cc1cccs1)N(CC1CCCO1)C1(C(=O)NC2CCCCC2)CCCCC1 (stereo not given) ?
no (0)
